These measurements were taken from PubChem BioAssay AID624045.

Target: Dual specificity tyrosine-phosphorylation-regulated kinase 1A (Homo sapiens) (UniProt Q13627)
Test: Reaction Biology data for inhibitors of DYRK1A: Probe SAR
Conditions: Reaction Biology DYRK1A kinase assay, 10 uM ATP; series mostly up to 10 µM
Source text: Alternative splicing of pre-mRNAs plays a major role in the regulation of eukaryotic gene expression. Alternative splicing is now thought to be one of the primary reasons for the complexity of higher organisms leading to an average of three protein isoforms per gene. Aberrant splicing can lead to a number of diseases and is known to play a role in rare genetic diseases such as progeria syndrome. […]
Calls of active or inactive are those of the source. Calls follow the shape of the dose curve; as a rule, active = well fitted inhibition curve with a large enough effect; inactive = flat fitted curve, though single readings scatter.
Choose the fitting class; nothing outside active, inactive is accepted.

>  <ENTRY SMILES>
Clc1ccc(CNc2nccc(-c3ccc4cn[nH]c4c3)n2)cc1Cl

>  <CLASS ASSIGNMENT>
active

$$$$

Task: Short answer needed: outcome of this test for Brc1cc(Br)cc(CNc2nccc(-c3ccc4c(c3)OCO4)n2)c1 ?
Result: active

Task: Short answer needed: outcome of this test for Clc1ccc(CNc2nccc(-c3ccc4c(c3)OCO4)n2)cc1Cl ?
Result: active

Task: Short answer needed: outcome of this test for Brc1ccc(CNc2nccc(-c3ccc4c(c3)OCO4)n2)cc1Br ?
Result: active

Task: Short answer needed: outcome of this test for COc1ccc(-c2ccnc(NCc3ccc(Cl)c(Cl)c3)n2)cc1OC ?
Result: inactive

Task: Short answer needed: outcome of this test for c1cncc(CNc2ncncc2-c2ccc3c(c2)OCO3)c1 ?
Result: inactive

Task: Short answer needed: outcome of this test for Clc1ccc(CNc2ncncc2-c2ccc3c(c2)OCO3)cc1Cl ?
Result: active

Task: Short answer needed: outcome of this test for Clc1ccc(CNc2nccc(-c3ccc4[nH]ncc4c3)n2)cc1Cl ?
Result: active

Task: Short answer needed: outcome of this test for Cc1c(-c2ccnc(NCc3cccnc3)n2)sc(=O)n1C ?
Result: active

----------
Exercise: for every item that follows, state its recorded Potency.
target: Dual specificity tyrosine-phosphorylation-regulated kinase 1A (Homo sapiens) (UniProt Q13627); test: Reaction Biology data for inhibitors of DYRK1A: Probe SAR; details: Reaction Biology DYRK1A kinase assay, 10 uM ATP; series mostly up to 10 µM
Calls of active or inactive are those of the source. Calls follow the shape of the dose curve; as a rule, active = well fitted inhibition curve with a large enough effect; inactive = flat fitted curve, though single readings scatter.

Please review the entries below; each comes with its answer.
>  <ENTRY SMILES>
COc1cccc(-c2ccnc(NCc3ccc(Cl)cc3)n2)c1

>  <Potency>
6360 nM (active)

$$$$
>  <ENTRY SMILES>
COc1cccc(-c2ccnc(NCc3ccc(Cl)c(Cl)c3)n2)c1

>  <Potency>
4650 nM (active)

$$$$
>  <ENTRY SMILES>
Clc1ccc(Nc2nccc(-c3ccc4c(c3)OCO4)n2)cc1

>  <Potency>
273 nM (active)

$$$$
>  <ENTRY SMILES>
Cc1nc(CNc2ncnc3ccc(-c4ccc5c(c4)OCO5)cc23)cs1

>  <Potency>
33.3 nM (active)

$$$$
>  <ENTRY SMILES>
Clc1ccc(CNc2ccnc(-c3ccc4[nH]ncc4c3)n2)cc1Cl

>  <Potency>
2350 nM (active)

$$$$

Task: What value of Potency has been recorded for this entry: c1cncc(CNc2ccnc(-c3ccc4cn[nH]c4c3)n2)c1
Result: 1430 nM (active)

----------
biological target: Dual specificity tyrosine-phosphorylation-regulated kinase 1A (Homo sapiens); assay: Reaction Biology data for inhibitors of DYRK1A: Probe SAR; details: Reaction Biology DYRK1A kinase assay, 10 uM ATP; series mostly up to 10 µM
Active and inactive are the calls of the source. Calls follow the shape of the dose curve; as a rule, active = well fitted inhibition curve with a large enough effect; inactive = flat fitted curve, though single readings scatter.
Exercise: for every item that follows, state its recorded Potency.

>  <ENTRY SMILES>
O=[N+]([O-])c1cc(Nc2nccc(-c3ccc4c(c3)OCO4)n2)cc(C(F)(F)F)c1

>  <EXPERIMENTAL TARGET>
Dual specificity tyrosine-phosphorylation-regulated kinase 1A (Homo sapiens)

>  <Potency>
0.0241 µM (active)

$$$$

Give Potency for each listed item.
1. COc1ccc(-c2ccnc(NCc3ccc(Cl)cc3)n2)cc1
2. Cc1nc(CN(C)c2ncnc3ccc(-c4ccc5c(c4)OCO5)cc23)cs1
3. Cc1nc(CN(C)c2ncnc3ccc(-c4ccc5[nH]ncc5c4)cc23)cs1
4. Cc1c(-c2ccnc(NCc3ccc(Cl)cc3)n2)sc(=O)n1C

Result:
1: 0.558 µM (active); 2: 0.0052 µM (active); 3: 0.0641 µM (active); 4: 0.0629 µM (active)
